Documented SGCB cell-surface expression functional score (log10) across a set of variants
B1: library; numbered along this chain (parent)
chain: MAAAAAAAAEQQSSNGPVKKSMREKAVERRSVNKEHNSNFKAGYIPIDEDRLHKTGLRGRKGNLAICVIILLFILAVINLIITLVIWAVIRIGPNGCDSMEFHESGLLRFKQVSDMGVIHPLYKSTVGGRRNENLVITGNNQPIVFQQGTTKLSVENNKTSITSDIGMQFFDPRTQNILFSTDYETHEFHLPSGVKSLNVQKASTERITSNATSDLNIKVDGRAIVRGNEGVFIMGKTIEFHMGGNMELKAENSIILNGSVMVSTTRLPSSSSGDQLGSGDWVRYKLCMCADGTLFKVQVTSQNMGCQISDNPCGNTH

Variants of: B1
Experiment: SGCB cell-surface expression functional score (HA stain, bin4 vs bin1, normalised to synonymous) (log10 ratio); higher = more cell-surface SGCB (functional)
measured.metric: SGCB cell-surface expression functional score (log10)

>>> test_value("G278L")
-0.05
>>> test_value("A203G")
-1.02
>>> test_value("I225Y")
1.24
>>> test_value("E240S")
0.98
>>> test_value("P313E")
0.11
>>> test_value("L52W")
-0.3
>>> test_value("K61W")
0.05
>>> test_value("S14G")
0.43
>>> test_value("K41C")
-0.2
>>> test_value("C288P")
-0.81
>>> test_value("E188R")
-0.8
>>> test_value("T151D")
-1.17
>>> test_value("C307Y")
0.26
>>> test_value("R109V")
0.1
>>> test_value("K54N")
0.23
>>> test_value("L71Y")
-0.5
>>> test_value("T151G")
-0.94
>>> test_value("I82V")
0.04
>>> test_value("H242A")
0.4
>>> test_value("I70P")
0.16
>>> test_value("D275M")
0.18
>>> test_value("N304R")
-0.41
>>> test_value("N33H")
0.48
>>> test_value("I162W")
0.05
>>> test_value("Q176N")
0.38
>>> test_value("A291Q")
-0.72
>>> test_value("L295P")
-0.13
>>> test_value("L71R")
-0.37
>>> test_value("P17G")
-0.18
>>> test_value("V155A")
-0.56
>>> test_value("L295A")
-0.91
>>> test_value("G117K")
-1.66
>>> test_value("S125F")
-0.45
>>> test_value("I239A")
0.09
>>> test_value("N33A")
0.36
>>> test_value("L216D")
-2.69
>>> test_value("M247W")
-1.52
>>> test_value("S154D")
0.2
>>> test_value("N158Q")
0.06
>>> test_value("R60K")
0.08
>>> test_value("G274K")
-0.77
>>> test_value("A76G")
-0.2
>>> test_value("G280V")
0.01
>>> test_value("Q12N")
0.01
>>> test_value("D215V")
-0.56
>>> test_value("S14Q")
0.46
>>> test_value("S272L")
0.07
>>> test_value("T160S")
-0.5
>>> test_value("K237A")
0.85
>>> test_value("D98A")
0.32
>>> test_value("R29N")
0.21
>>> test_value("T213D")
-0.81
>>> test_value("S254Q")
0.92
>>> test_value("S21P")
0.12
>>> test_value("T55A")
-0.43
>>> test_value("N158E")
-0.02
>>> test_value("A9T")
0.39
>>> test_value("Q142T")
-0.17
>>> test_value("V220A")
0.7
